Test system: neurotoxicity (rotarod)
test_method_notes: Neurotoxicity (rotarod)
Assay type: in vivo
run_parameters: mice, protective index
quantity_kind: PI(TD50/ED50 in MES)

Request body: readout PI(TD50/ED50 in MES), system neurotoxicity (rotarod), query C[C@H](OC(N)=O)[C@@H](O)c1c(Cl)cccc1Cl . Return the value. 5.1

Request body: readout PI(TD50/ED50 in MES), system neurotoxicity (rotarod), query CC(OC(N)=O)C(O)c1ccccc1Cl (racemic) . Return the value. 12.0

Request body: readout PI(TD50/ED50 in MES), system neurotoxicity (rotarod), query C[C@@H](OC(N)=O)[C@H](O)c1ccccc1Cl . Return the value. 7.3

Request body: readout PI(TD50/ED50 in MES), system neurotoxicity (rotarod), query C[C@H](OC(N)=O)[C@H](O)c1ccccc1Cl . Return the value. 3.3

Request body: readout PI(TD50/ED50 in MES), system neurotoxicity (rotarod), query C[C@H](OC(N)=O)[C@@H](O)c1ccccc1Cl . Return the value. 16.8
